experiment: Dynamic light scattering of C12LE aggregation; assay type: physicochemical; conditions: water, in the presence of the antimicrobial or C12LE alone
MEASURED QUANTITY: Slope of C12LE aggregation (DLS particle size)

CO/N=C(\C(=O)N[C@@H]1C(=O)N2C(C(=O)[O-])=C(C[N+]3(C)CCCC3)CS[C@H]12)c1csc(N)n1 [Cefepime, cefepime] :: 3.2
CCCCCCCCCCCCN1CCOCCOCCN(CCCCCCCCCCCC)CCOCCOCC1 [C12LE (4), N,N′-Di-n-dodecyl-4-13-diaza-18-crown-6] :: 2.95
O=C(O)c1cn(C2CC2)c2cc(N3CCNCC3)c(F)cc2c1=O [Ciprofloxacin, ciprofloxacin] :: 1.8
NC[C@H]1O[C@H](O[C@H]2[C@H](O)[C@@H](O[C@H]3O[C@H](CO)[C@@H](O)[C@H](N)[C@H]3O)[C@H](N)C[C@@H]2N)[C@H](O)[C@@H](O)[C@@H]1O [Kanamycin, kanamycin] :: 2.5
